This listing pairs binders with measured GFP+% of LAIR1 reporter cells, collagen I coated, soluble Ab.
Assayed system: T1, LAIR1 on LAIR1 reporter cells (human, UniProt Q6GTX8 22-165, limits assumed); also: test concentration or dose not given here
T1 chain: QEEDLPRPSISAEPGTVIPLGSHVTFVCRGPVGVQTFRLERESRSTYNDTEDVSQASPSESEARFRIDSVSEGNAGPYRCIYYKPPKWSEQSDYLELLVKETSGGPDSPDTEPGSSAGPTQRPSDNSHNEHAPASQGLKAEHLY
Test details: cell-based or functional assay
Metric name: GFP+% of LAIR1 reporter cells, collagen I coated, soluble Ab

[
  {
    "Binder": "LA-101 (antibody, V domains shown, Rabbit monoclonal IgG) VH: EQSVEESGGRLVTPGTPLTLTCTVSGFSLSSFHMCWVRQAPGKGLEYIGIIYPGGSTGYANWAKGRFTVSKASNTVDLKISSPTTEDTATYFCARVNYGDWINGMDLWGPGTLVTISS VL: ELDMTQTPASVSEPVGGTVTIKCQASQSIGSNLAWYQQKPGQRPKLLIYKASTLASGVPSRFKGSGSGTDFTLTISDLECADAASYYCQQAYWSGNVDNVFGGGTEVEIK",
    "Value reported": "2.92%"
  },
  {
    "Binder": "LA-235 (antibody, V domains shown, Rabbit monoclonal IgG; Called an antagonist antibody) VH: SSSVEESEGRLVTPGTPLTLTCTVSGFSLSSYTMGWVRQAPGEGLEWIGTTSNDGSTYYASWAKGRFTISKTSSTTVDLMMTSLTTEDTATYFCVRGTNIRSLWGPGTLVTISS VL: ELVMTQTPASVEAAVGGTVTIKCQASQSIGSNLAWYQQKPGQPPKLLIYLASALASGVSSRFKGSGSGSDFTLTISDLECADAATYYCQCTYGSSNNNNYGDPFGGGTEVEIK",
    "Value reported": "5.76%"
  },
  {
    "Binder": "LA-117 (antibody, V domains shown, Rabbit monoclonal IgG) VH: QSVKESGGDLVKPGASLTLACTASGFSFSDGYYMCWVRQAPGKGLEWIGCIHSSSGSIYYASWAKGRFTISKTSSTMVTLQMSSLTAADTATYFCARDSESYGYNPCELWGPGTLVTISS VL: ELDLTQTPASVSEAVGGTVTIKCQASQTISNYLAWYQQKPGQRPKLLIYAASSLASGVSSRFRGSRSGTEYTLTITDLECDDAATYYCQCTYYGTTYVGGAFGGGTELEIK",
    "Value reported": "3.19%"
  }
]
